- assay notes: gradient 5% acetonitrile 3 min, to 50% in 2 min, to 85% in 15 min, held 3 min, 100 µL/min
- setup conditions: column: Zorbax Extend-C18 2.1 x 50 mm; eluents: water / acetonitrile, 0.1% formic acid
Please go through the items and note down their RP-LC retention time.
Answers are plain numbers, in s.

O=C(CN1CCN(C(=O)Nc2ccc(Br)cc2)CC1=O)N1CCCCC1; 701
Cc1cc(C(=O)N2CCC(CC(=O)NC3CC3)C2)n(C)n1 (stereo not given); 585
COc1ccc2c(c1)Cc1sc(NC(=O)c3ccc(Br)cc3)nc1-2; 1130
COc1ccccc1Nc1c(-c2ccc(OC)c(OC)c2)nc2cnccn12; 806
O=C(Nc1ccccc1)Nc1c(-c2ccc(F)cc2)nc2ccccn12; 662
Cc1ccc(Cn2c(=O)n(CCNC(=O)c3ccoc3)c3ncccc32)cc1; 760

Hi! Can you tell me RP-LC retention time for each of these compounds?
1. O=C(NCCn1c(=O)n(Cc2ccccc2)c2cccnc21)C1CCCC1
2. COc1ccc(NC(=O)c2nc3nc(C)cc(C(F)F)n3n2)cc1Cl
3. COC(=O)c1ccc(C2CC(=O)NC3=C2C(=O)CCC3)cc1 (stereo not given)
4. CCOc1ccc(NC(=O)c2cccc(-n3cnnn3)c2)cc1

Solution:
1: 760; 2: 813; 3: 653; 4: 737

====

Please go through the items and note down their RP-LC retention time.
- assay notes: gradient 5% acetonitrile 3 min, to 50% in 2 min, to 85% in 15 min, held 3 min, 100 µL/min
- setup conditions: column: Zorbax Extend-C18 2.1 x 50 mm; eluents: water / acetonitrile, 0.1% formic acid
One number for each entry, in s.

COc1ccc(NC(=O)c2ccc3ncsc3c2)c([N+](=O)[O-])c1; 800

Hi! Can you tell me RP-LC retention time for each of these compounds?
1. COC[C@@H]1CN(Cc2ccc(OC)cc2OC)C[C@H]1c1ccncc1
2. Cc1noc(C)c1-c1ccc(S(=O)(=O)N2CCC(C)CC2)cc1
3. Cc1ccc(CNC(=O)C2CCCN(S(=O)(=O)c3c[nH]c(C(=O)N4CCCCCC4)c3)C2)cc1 (centres undefined)
4. COc1ccc(OC)c(S(=O)(=O)N2CC(c3nc(-c4ccsc4)nn3C)C2)c1
5. Cc1ccc(C(=O)NC2CCN(c3ccccc3)C2=O)c(C)c1 (centres undefined)
6. CCCCCCCNC(=O)C1CCCN(c2ncc(-c3ccc(F)cc3)cn2)C1 (centres undefined)
7. O=C(NCc1cc(F)ccc1F)C1CCN(c2cncnc2N2CCCCC2)CC1

Solution:
[590, 1020, 883, 816, 797, 1260, 709]

Exercise: Which RP-LC retention time value is on record for Cc1sc(C)c(S(=O)(=O)N2CCN(c3ccccn3)CC2)c1-c1cc(C(F)(F)F)on1 ?
Solution: 887

====

Please go through the items and note down their RP-LC retention time.
- assay notes: gradient 5% acetonitrile 3 min, to 50% in 2 min, to 85% in 15 min, held 3 min, 100 µL/min
- setup conditions: column: Zorbax Extend-C18 2.1 x 50 mm; eluents: water / acetonitrile, 0.1% formic acid
One number for each entry, in s.

Example cases with answers are listed next.
O=C(NCCNC(=O)c1cccc(Cl)c1)c1ccc(NC(=O)C2CC2)cc1; 667
CCCn1c(=O)c2c(C(=O)N3CCN(c4ccc(Cl)cc4)CC3)cc(=O)n(CCC)c2n(C)c1=O; 1210
Cc1ccc(-c2cc3c(=O)n(Cc4nc(-c5ccc6c(c5)OCO6)no4)ncn3n2)c(C)c1; 1170

Hi! Can you tell me RP-LC retention time for each of these compounds?
1. O=C1NC2(CCN(C(=O)c3ccccc3Cl)CC2)N=C1c1cccc(F)c1
2. Cn1c(=O)c2c(-c3ccncc3)c(C#N)c(N)nc2n(C)c1=O
3. COc1ccc2[nH]cc(CCN3CC(C(=O)N4CCc5ccccc54)CC3=O)c2c1 (stereo not given)
4. COC(=O)Nc1ccc(CC(=O)NC2CC2)cc1
5. COc1ccc(NS(=O)(=O)c2cc(-c3cc(C(F)(F)F)on3)sc2C)cc1Cl
6. COc1ccccc1-c1cc2c(=O)n(Cc3nc(-c4cccc(OC)c4OC)oc3C)ccn2n1
7. O=C(CSc1nc(-c2ccccc2)ns1)Nc1nc2ccccc2s1

Solution:
[776, 554, 802, 592, 1140, 1060, 1000]

====

- assay notes: gradient 5% acetonitrile 3 min, to 50% in 2 min, to 85% in 15 min, held 3 min, 100 µL/min
- setup conditions: column: Zorbax Extend-C18 2.1 x 50 mm; eluents: water / acetonitrile, 0.1% formic acid
observation type: RP-LC retention time (s)
Numbers only, in s.

Example cases with answers are listed next.
Cc1ccc(C(=O)Nc2cnc(-c3cccc(Cl)c3)nc2)s1; 1140
Cn1nc(C(=O)N2CCN3CCS(=O)(=O)N(C4CC4)C(=O)C3C2)c2ccccc21 (stereo not given); 748
Cc1ccccc1Cc1noc(-c2nc(-c3ccccc3F)no2)n1; 1180
CCC(=O)Nc1ccc(-n2cnc(C(=O)NC3CCC(C)CC3)c2)nc1 (stereo not given); 710

Hi! Can you tell me RP-LC retention time for each of these molecules?
1. O=C(Cn1ncc2c3ccccc3n(Cc3ccc(F)cc3)c2c1=O)N1CCN(c2ccccn2)CC1
2. CC(C)OC(=O)N1CCC(Oc2ncnc3c2cnn3-c2ccc(S(C)(=O)=O)cc2F)CC1
3. Cc1cc(Br)ccc1NC(=O)CCc1c(-c2ccc(F)cc2)nc2ccccn12

Solution:
1: 689; 2: 1060; 3: 728

Hi! Can you tell me RP-LC retention time for each of these molecules?
1. CC(C)NC(=O)c1cc(C2CC2)[nH]n1
2. COc1cccc(CN2CN(c3ccc(C)cc3)c3ncccc3S2(=O)=O)c1
3. COc1ccc2nc(NCCn3cccn3)sc2c1
4. Cc1nnc2cc(N3CCN(C(=O)Nc4ccccc4F)CC3)cnn12

Solution:
1. 644
2. 1110
3. 599
4. 542

Hi! Can you tell me RP-LC retention time for each of these molecules?
1. O=C(NCCn1nc(-c2ccco2)ccc1=O)c1n[nH]c2ccccc12
2. Cn1nnnc1SCC(=O)NCCOc1ccc(-c2ccc(F)cc2)nn1
3. Cc1nnc(N2CCC(C(=O)NCC3CCCO3)CC2)c2nn(-c3ccccc3)c(C)c12 (stereo not given)
4. Cc1nnsc1C(=O)N1CCC(C(=O)NCC(F)(F)F)CC1
5. CCN(CC)CCn1c(NCc2ccccc2OC)nc2ccccc21
6. O=C(Nc1nnc(C2=COCCO2)o1)C1CCN(S(=O)(=O)c2cccs2)CC1

Solution:
1: 643; 2: 654; 3: 632; 4: 614; 5: 1130; 6: 643

Hi! Can you tell me RP-LC retention time for each of these molecules?
1. CCN1CCN(CCNC(=O)c2c(-c3ccc(Br)s3)noc2C)CC1
2. CC(C(=O)Nc1nc(-c2ccccc2)cs1)N1C(=O)C2C3C=CC(C3)C2C1=O (stereo not given)
3. COC(=O)CC(=O)Nc1ccc(-c2nc(-c3ccccc3)co2)cc1

Solution:
1. 618
2. 955
3. 906

Hi! Can you tell me RP-LC retention time for each of these molecules?
1. CC1CCN(C(=O)C2=NN(C(C)C)c3cc(Cl)ccc3S2(=O)=O)CC1
2. CN(C)c1ncncc1N1CCC(C(=O)N2CCN(c3cccc(Cl)c3)CC2)CC1
3. Cc1nc(-c2cccc(NC(=O)CCCn3cnc(-c4ccc(F)cc4)cc3=O)c2)cs1
4. Cc1cc2nn(CC(=O)Nc3ccc(F)cc3)c(=O)n2c(N2CCCC2)n1
5. O=C(Nc1cccc(N2CC(C(=O)Nc3ccc(C(F)(F)F)cc3)CC2=O)c1)C1CCC1 (stereo not given)
6. C[C@H]1CN(C(=O)c2nn(C)c3ccccc23)C[C@@H]1c1nc(-c2ccncc2)no1
7. CCc1nc(-c2csc(S(=O)(=O)N3CCC(C(=O)Nc4ccc(C)cc4)CC3)c2)no1
8. COc1ccc(-c2cc(C(=O)N3CCC(NC(=O)C4CC4)CC3)[nH]n2)cc1

Solution:
1. 1020
2. 722
3. 768
4. 739
5. 880
6. 864
7. 1020
8. 652

Hi! Can you tell me RP-LC retention time for each of these molecules?
1. CC(C)N1C(=O)c2cccnc2Sc2cc(NC(=O)C3CCOC3)ccc21 (stereo not given)
2. CCOc1ccc(C2=NC3(CCN(C(C)C)CC3)NC(c3cccc(OC)c3O)C2)cc1 (stereo not given)
3. ClCC(CNCc1ccccc1)c1ccccc1 (stereo not given)
4. COCCNC(=O)c1sc2c(cnc3cc4c(cc32)OCO4)c1-c1ccccc1

Solution:
1: 680; 2: 608; 3: 723; 4: 732

Hi! Can you tell me RP-LC retention time for each of these molecules?
1. COC(=O)c1cnn2c(C)c(Cc3ccc(C)cc3)c(C)nc12
2. Cc1cc(N(C)C)n2nc(CN3CCN(c4ccccc4)CC3)nc2n1
3. Cc1nc2cc(-c3noc(Cc4ccc(Cl)cc4)n3)ccc2o1

Solution:
[885, 607, 1070]

Hi! Can you tell me RP-LC retention time for each of these molecules?
1. COc1ccc(-c2nnc(COc3ccc(NC(=O)c4ccnn4C)cc3)o2)cc1
2. CCC(=O)Nc1nc(-c2ccc3c(c2)N(CC)C(=O)CO3)cs1
3. CCCc1cc(N2CCN(C(=O)COc3ccccc3)CC2)nc2nncn12
4. CCOC(=O)Cn1cccc(S(=O)(=O)N2CCCCCC2)c1=O
5. O=C(Nc1cccc(C(F)(F)F)c1)N1CCC(n2cnnc2C2CC2)C1 (stereo not given)

Solution:
1: 790; 2: 752; 3: 640; 4: 831; 5: 701

The measurements presented in this section are drawn from the METLIN SMRT retention time set (Domingo-Almenara et al. 2019).
